assayed-target: p21ras farnesyltransferase from human colon carcinoma (COLO-205) (Homo sapiens, UniProt P49354+P49356)
Construct: p21ras farnesyltransferase from 60,000×g supernatant fractions was then partially purified by DEAE-sephacel chromatography; endogenous in cells; host or cells: COLO-205 human colon carcinoma cells (cytosolic 60,000×g supernatant, DEAE-sephacel fraction)
protocol: p21ras farnesyltransferase activity assay, enzyme from COLO-205
Type: biochemical
stated-conditions: partially purified enzyme from COLO-205, transfer of farnesyl to recombinant p21 H-ras; read-out: IC50 (μM) COLO-205
Peptide text beside a SMILES is read from it.
measurement-type: IC50 (µM)
Field format: number, assumed µM, no unit text.

{"columns": ["molecule", "IC50 / µM"],
 "data": [
  ["N[C@@H](CS)C(=O)NCc1cccc(C(=O)N[C@@H](Cc2ccccc2)C(=O)O)c1", 0.53]
]}

# ---- query molecule ----
In: What does the record list as IC50 for CC[C@H](C)[C@H](NC(=O)[C@@H](NC(=O)[C@@H](N)CS)[C@@H](C)CC)C(=O)N[C@@H](CCSC)C(=O)O [CIIM, reference compound] (H-CIIM-OH) ?
Out: 0.53

====

assayed-target: p21ras farnesyltransferase from Burkitt's lymphoma (Daudi) (Homo sapiens, UniProt P49354+P49356)
Construct: Partially purified p21ras farnesyltransferase from human tumors; endogenous in cells; host or cells: Daudi Burkitt's lymphoma cells
protocol: p21ras farnesyltransferase activity assay, enzyme from Daudi
Format: biochemical
stated-conditions: partially purified enzyme from Daudi, transfer of farnesyl to recombinant p21 H-ras; read-out: IC50 (μM) Daudi
Peptide text beside a SMILES is read from it.
measurement-type: IC50 (µM)
# unit: µM | format: bare number

{"columns": ["molecule", "units-symbol", "IC50"],
 "data": [
  ["N[C@@H](CS)C(=O)NCc1cccc(C(=O)N[C@@H](Cc2ccccc2)C(=O)O)c1", "µM", 0.6],
  ["CSCC[C@H](NC(=O)[C@@H](NC(=O)[C@@H](NC(=O)[C@@H](N)CS)C(C)C)C(C)C)C(=O)O [CVVM, Cys-Val-Val-Met, reference compound] (H-CVVM-OH)", "µM", 0.61]
]}

In: Fill blank: measured IC50 of the molecule CC[C@H](C)[C@H](NC(=O)[C@@H](NC(=O)[C@@H](N)CS)[C@@H](C)CC)C(=O)N[C@@H](CCSC)C(=O)O [CIIM, reference compound] (H-CIIM-OH) is ____.
Out: 0.83

====

assayed-target: p21ras farnesyltransferase from EJ3 cells (Mus musculus, UniProt Q61239+Q8K2I1)
Construct: p21ras farnesyltransferase was partially purified from EJ3 cells by DEAE-chromatography; endogenous in cells; host or cells: EJ3 cells (H-ras-transformed Balb/c 3T3 murine fibroblasts)
Sequence (Q8K2I1 whole entry, one chain of several): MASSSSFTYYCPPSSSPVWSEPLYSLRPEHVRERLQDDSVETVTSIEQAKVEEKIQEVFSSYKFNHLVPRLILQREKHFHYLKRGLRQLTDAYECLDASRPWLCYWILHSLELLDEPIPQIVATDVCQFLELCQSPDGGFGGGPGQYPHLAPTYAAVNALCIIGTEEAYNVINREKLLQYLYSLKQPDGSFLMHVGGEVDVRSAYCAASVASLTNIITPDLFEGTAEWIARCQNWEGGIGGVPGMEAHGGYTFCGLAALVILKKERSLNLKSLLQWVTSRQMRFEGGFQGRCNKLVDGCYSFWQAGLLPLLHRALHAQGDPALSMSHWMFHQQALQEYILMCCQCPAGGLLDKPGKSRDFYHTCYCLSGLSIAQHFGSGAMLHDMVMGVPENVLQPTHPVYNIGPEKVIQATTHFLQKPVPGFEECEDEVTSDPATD
protocol: p21ras farnesyltransferase inhibition, enzyme from EJ3 cells
Assay type: biochemical, murine
stated-conditions: Table 2; read-out: IC50 (uM) Farnesyltransferase
Peptide text beside a SMILES is read from it.
measurement-type: IC50 (µM)
The answer is to be given in µM; state only the numeric part.

The examples below pair each entry with its known result.
{"columns": ["molecule", "units-symbol", "IC50"],
 "data": [
  ["CSCC[C@H](NC(=O)c1cccc(CNC(=O)[C@@H](N)CS)c1)C(=O)O [C-AMBA-M, Cys-AMBA-Met]", "µM", 3.1],
  ["CC[C@H](C)[C@H](NC(=O)[C@@H](NC(=O)[C@@H](N)CS)C(C)C)C(=O)N[C@@H](CCSC)C(=O)O [CVIM, Cys-Val-Ile-Met, reference compound] (H-CVIM-OH)", "µM", 0.35],
  ["CC[C@H](C)[C@H](NC(=O)[C@@H](NC(=O)[C@@H](N)CS)C(C)C)C(=O)N[C@@H](CCSC)C(=O)OC [M-CVIM] (HELM PEPTIDE1{C.V.I.M.[CO[*:1]]}$$$$V2.0)", "µM", 4.5]
]}

In: IC50 for CC[C@H](C)[C@H](NC(=O)[C@H](CS)NC(=O)[C@@H](N)C(C)C)C(=O)N[C@@H](CCSC)C(=O)O [VCIM, reference compound] (H-VCIM-OH) ?
Out: 40

====

assayed-target: p21ras farnesyltransferase from EJ3 cells (Mus musculus, UniProt Q61239+Q8K2I1)
Construct: p21ras farnesyltransferase was partially purified from EJ3 cells by DEAE-chromatography; endogenous in cells; host or cells: EJ3 cells (H-ras-transformed Balb/c 3T3 murine fibroblasts)
protocol: p21ras farnesyltransferase inhibition, enzyme from EJ3 cells
Assay type: biochemical, murine
stated-conditions: enzyme from EJ3 cells, FIG. 5A; read-out: p21ras farnesyltransferase IC50
Peptide text beside a SMILES is read from it.
measurement-type: pIC50
Recall that pIC50 is obtained by taking minus log10 of the concentration measured in molar.

In: Can you look up the measured pIC50 of CC[C@H](C)[C@H](NC(=O)[C@@H](NC(=O)[C@@H](N)CS)C(C)C)C(=O)N[C@@H](CCSC)C(=O)O [CVIM, Cys-Val-Ile-Met, reference compound] (H-CVIM-OH) for me?
Out: 6.40

====

assayed-target: p21ras farnesyltransferase from Burkitt's lymphoma (Daudi) (Homo sapiens, UniProt P49354+P49356)
Construct: Partially purified p21ras farnesyltransferase from human tumors; endogenous in cells; host or cells: Daudi Burkitt's lymphoma cells
protocol: p21ras farnesyltransferase activity assay, enzyme from Daudi
Type: biochemical
stated-conditions: partially purified enzyme from Daudi, transfer of farnesyl to recombinant p21 H-ras; read-out: IC50 (μM) Daudi
Peptide text beside a SMILES is read from it.
measurement-type: IC50

{"columns": ["compound", "IC50"],
 "data": [
  ["NCCCC[C@H](NC(=O)c1cccc(CNC(=O)[C@@H](N)CS)c1)C(=O)O", "> 10 µM"]
]}

In: // query IC50 value for entry CC[C@H](C)[C@H](NC(=O)[C@H](CS)NC(=O)[C@@H](N)C(C)C)C(=O)N[C@@H](CCSC)C(=O)O [VCIM, reference compound] (H-VCIM-OH)
Out: > 10 µM

In: Data request, read-out IC50, for "CC(C)C[C@H](NC(=O)c1cccc(CNC(=O)[C@@H](N)CS)c1)C(=O)O"
Out: > 10 µM
